System: Ggt
protocol-notes: In vivo assay: control of Ggt on wheat in 3-inch pots with infested soil, rated after four weeks;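 note: rate is mg active ingredient per pot in 3 mL solution not ppm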
Parameters: species or system Gaeumannomyces graminis var. tritici
experimental-parameters: Gaeumannomyces graminis, 672 h; rate 0.5 (head prints ppm, head line ends mg/pot); wheat, soil infested with Ggt, after four weeks; N = no control; read-out: In vivo(ppm) 0.5, percent disease control
Readings of pest or weed control at 0.5 mg/pot for the listed compounds
Please state the figure in %; there is no need to write the unit.

Can you look up pest or weed control at 0.5 mg/pot on Ggt for CCNC(=O)c1c(OC(C)(CC)CC)ccc2ccccc12 [Example 28] ?
78

Record lookup: for Ggt, what pest or weed control at 0.5 mg/pot belongs to CCCNC(=O)c1c(OC2(C)CCCCC2)ccc2ccccc12 [Example 40] ?
60

For Ggt, provide pest or weed control at 0.5 mg/pot of CCNC(=O)c1c(OC2(C)CCCC2)ccc2ccccc12 [Example 36] please.
60

Request - read-out pest or weed control at 0.5 mg/pot | tested on Ggt | compound CCNC(=O)c1c(NC(C)(C)C)ccc2ccccc12 [Example 20]
61

What pest or weed control at 0.5 mg/pot appears in the records for this compound with Ggt? CCCNC(=O)c1c(NC(C)(C)CC)ccc2ccccc12 [Example 25]
78

Given the entry CCNC(=O)c1c(NC(C)(C)CC)ccc2ccccc12 [Example 22] , what pest or weed control at 0.5 mg/pot was observed with Ggt?
70

Write down the reported pest or weed control at 0.5 mg/pot of CCNC(=O)c1c(OC(CC)(CC)CC)ccc2ccccc12 [Example 32] , test system: Ggt.
58

Give pest or weed control at 0.5 mg/pot (Ggt) of the following compound: CCCNC(=O)c1c(OC(CC)(CC)CC)ccc2ccccc12 [Example 34]
49

What measured pest or weed control at 0.5 mg/pot is associated with C=CCNC(=O)c1c(OC(CC)(CC)CC)ccc2ccccc12 [Example 33] on Ggt?
59

GET /values?readout=pest or weed control at 0.5 mg/pot&system=Ggt&item= CCCNC(=O)c1c(NC(C)(C)C)ccc2ccccc12 [Example 21]
78

Every entry's value here was drawn from patent EP0619297B1.
